Answer each item with its documented IC50.
# Test system: HCT-116
# assay: Cytotoxicity against human HCT116 cells assessed as cell viability after 48 hrs by MTT assay
# Format: functional, cell-based
# details: HCT-116, 48 h

O=c1c(O)c(-c2cccc(Br)c2)oc2ccccc12: 7.5 µM
O=C(/C=C/c1cccc(Br)c1)c1ccccc1O: 10.9 µM
O=c1c(O)c(-c2ccc(Cl)cc2)oc2ccccc12: 6.8 µM

Please go through the list and note IC50 for each compound.
1. O=C(/C=C/c1ccc(F)cc1)c1ccccc1O
2. O=c1c(O)c(-c2cccc(F)c2)oc2ccccc12
3. O=c1c(O)c(-c2ccc(Br)cc2)oc2ccccc12
4. O=C(/C=C/c1ccc(Br)cc1)c1ccccc1O
5. O=C(/C=C/c1cccc(F)c1)c1ccccc1O
6. O=C(/C=C/c1ccc(Cl)cc1)c1ccccc1O
7. O=C(/C=C/c1cccc(Cl)c1)c1ccccc1O
8. O=c1c(O)c(-c2cccc(Cl)c2)oc2ccccc12

Reply:
1: 20.5 µM; 2: 13 µM; 3: 4.6 µM; 4: 19.1 µM; 5: 14.5 µM; 6: 20.9 µM; 7: 13.2 µM; 8: 8.1 µM

Value of measured IC50 for the entry O=c1c(O)c(-c2ccc(F)cc2)oc2ccccc12 : 14.4 µM

* * *

Answer each item with its documented viability at 10 µM.
# Test system: HCT-116
# assay: Cytotoxicity against human HCT116 cells assessed as cell viability at 10 uM after 48 hrs by MTT assay relative to control
# Assay type: functional
# details: HCT-116, 48 h, read-out: Activity
Give bare numbers, in %.

Examples with their reported viability at 10 µM follow.
O=C(/C=C/c1ccc(Br)cc1)c1ccccc1O: 85.5
O=c1c(O)c(-c2cccc(F)c2)oc2ccccc12: 60.9

Please go through the list and note viability at 10 µM for each compound.
1. O=C(/C=C/c1ccc(F)cc1)c1ccccc1O
2. O=c1c(O)c(-c2cccc(Br)c2)oc2ccccc12
3. O=C(/C=C/c1cccc(F)c1)c1ccccc1O
4. O=c1c(O)c(-c2ccc(Cl)cc2)oc2ccccc12
5. O=C(/C=C/c1cccc(Br)c1)c1ccccc1O

Reply:
1: 85.2; 2: 37.6; 3: 90.2; 4: 40.8; 5: 48.4

Please go through the list and note viability at 10 µM for each compound.
1. O=C(/C=C/c1ccc(Cl)cc1)c1ccccc1O
2. O=c1c(O)c(-c2ccc(F)cc2)oc2ccccc12
3. O=c1c(O)c(-c2ccc(Br)cc2)oc2ccccc12
4. O=c1c(O)c(-c2cccc(Cl)c2)oc2ccccc12
5. O=C(/C=C/c1cccc(Cl)c1)c1ccccc1O

Reply:
[84.8, 61.1, 32.8, 43.8, 75.8]

src = ChEMBL document CHEMBL2401708
